- ASSAYED_SYSTEM: Genome polyprotein (West Nile virus, UniProt P06935)
- Sequence (P06935 1371-1501 limits assumed): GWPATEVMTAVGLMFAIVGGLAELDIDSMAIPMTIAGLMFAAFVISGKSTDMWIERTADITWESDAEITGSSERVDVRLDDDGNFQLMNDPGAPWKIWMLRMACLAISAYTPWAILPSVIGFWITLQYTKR
- Sequence (P06935 1502-2120 limits assumed): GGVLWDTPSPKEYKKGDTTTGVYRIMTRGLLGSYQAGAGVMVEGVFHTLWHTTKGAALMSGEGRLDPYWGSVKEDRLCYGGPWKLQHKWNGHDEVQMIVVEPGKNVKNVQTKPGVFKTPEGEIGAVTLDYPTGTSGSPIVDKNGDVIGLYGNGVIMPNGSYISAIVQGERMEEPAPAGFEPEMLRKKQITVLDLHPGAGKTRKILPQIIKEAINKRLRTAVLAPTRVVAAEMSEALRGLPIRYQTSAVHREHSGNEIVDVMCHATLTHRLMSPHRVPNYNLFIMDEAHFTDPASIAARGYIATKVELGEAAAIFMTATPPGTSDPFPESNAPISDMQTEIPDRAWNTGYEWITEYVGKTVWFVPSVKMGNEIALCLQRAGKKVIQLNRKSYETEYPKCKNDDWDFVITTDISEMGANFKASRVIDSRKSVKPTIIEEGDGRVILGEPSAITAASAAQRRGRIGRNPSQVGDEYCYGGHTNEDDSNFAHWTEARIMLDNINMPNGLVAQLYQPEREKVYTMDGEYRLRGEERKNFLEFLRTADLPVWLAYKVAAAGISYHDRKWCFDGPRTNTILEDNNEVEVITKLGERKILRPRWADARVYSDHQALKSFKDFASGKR
- MEASUREMENT_NOTES: Inhibition of WNV recombinant NS2B-NS3 protease
Starred links: 1 amine or outer side, 2 acyl side, 3 side chain; linkers in the order of their positions; H or OH if unused. Non-standard residues stand in square brackets, D forms with d. Residues, ends and D or L forms follow the SMILES beside them. *: point of attachment. Hydrocinnamoyl = O=C(CCc1ccccc1)*; hArg = N=C(N)NCCCC[C@H](N)C(=O)O; Cit = NC(=O)NCCC[C@H](N)C(=O)O; Orn = NCCC[C@H](N)C(=O)O; Cbz = O=C(OCc1ccccc1)*; PhAc = O=C(Cc1ccccc1)*; CO = O=C([*:1])[*:2]; NHBn = c1ccc(CN*)cc1; Bz = O=C(c1ccccc1)*
# Lookup of reported Ki keyed by entry
MEASURE: Ki (nM)

COMPOUND: NCCCC[C@H](NC(=O)c1ccccc1)C(=O)N[C@@H](CCCCN)C(=O)N[C@H](C=O)CCCN=C(N)N (Bz-Lys-Lys-Arg-aldehyde)
QUANTITATIVE_RESULT: 49

COMPOUND: NCCCC[C@H](NC(=O)Cc1ccccc1)C(=O)N[C@@H](CCCCN)C(=O)N[C@H](C=O)CCCN=C(N)N (PhAc-Lys-Lys-Arg-aldehyde)
QUANTITATIVE_RESULT: 9

COMPOUND: NCCCC[C@H](NC(=O)[C@H](CCCN=C(N)N)NC(=O)Cc1ccccc1)C(=O)N[C@H](C=O)CCCN=C(N)N (PhAc-Arg-Lys-Arg-aldehyde)
QUANTITATIVE_RESULT: 28

COMPOUND: N=C(N)NCCC[C@@H](C=O)NC(=O)[C@H](CCCCN)NC(=O)[C@H](CCCCN)NC(=O)/C=C/c1ccccc1
QUANTITATIVE_RESULT: 104

COMPOUND: NCCCC[C@H](NC(=O)CCc1ccccc1)C(=O)N[C@@H](CCCCN)C(=O)N[C@H](C=O)CCCN=C(N)N (Hydrocinnamoyl-Lys-Lys-Arg-aldehyde)
QUANTITATIVE_RESULT: 81

COMPOUND: N=C(N)NCCC[C@@H](C=O)NC(=O)[C@H](CCCN)NC(=O)[C@H](CCCCN)NC(=O)Cc1ccccc1 (PhAc-Lys-[Orn]-Arg-aldehyde)
QUANTITATIVE_RESULT: 13

COMPOUND: COc1ccc2ccc([C@H](C)C(=O)N[C@@H](CCCCN)C(=O)N[C@@H](CCCCN)C(=O)N[C@H](C=O)CCCNC(=N)N)cc2c1
QUANTITATIVE_RESULT: 20

COMPOUND: NCCCC[C@H](NC(=O)OCc1ccccc1)C(=O)N[C@@H](CCCCN)C(=O)N[C@H](C=O)CCCN=C(N)N (Cbz-Lys-Lys-Arg-aldehyde)
QUANTITATIVE_RESULT: 40

COMPOUND: N=C(N)NCCC[C@@H](C=O)NC(=O)[C@H](CCCCN)NC(=O)[C@H](CCCCN)NC(=O)NCc1ccccc1 ({NHBn-CO}-Lys-Lys-Arg-aldehyde)
QUANTITATIVE_RESULT: 26

COMPOUND: N=C(N)NCCC[C@@H](C=O)NC(=O)[C@H](CCCNC(N)=O)NC(=O)[C@H](CCCCN)NC(=O)Cc1ccccc1 (PhAc-Lys-[Cit]-Arg-aldehyde)
QUANTITATIVE_RESULT: 2070

COMPOUND: N=C(N)NCCCC[C@H](NC(=O)[C@H](CCCCN)NC(=O)Cc1ccccc1)C(=O)N[C@H](C=O)CCCNC(=N)N (PhAc-Lys-[hArg]-Arg-aldehyde)
QUANTITATIVE_RESULT: 53

COMPOUND: N=C(N)NCCC[C@@H](C=O)NC(=O)[C@H](CCCCN)NC(=O)[C@H](CCCCN)NC(=O)COc1ccccc1
QUANTITATIVE_RESULT: 19

COMPOUND: N=C(N)NCCCC[C@H](NC(=O)Cc1ccccc1)C(=O)N[C@@H](CCCCN)C(=O)N[C@H](C=O)CCCNC(=N)N (PhAc-[hArg]-Lys-Arg-aldehyde)
QUANTITATIVE_RESULT: 44
